System: C2A
Experiment: qHTS profiling for inhibitors of Plasmodium falciparum proliferation (AID 504749); further: nearly all actives have a fitted effect of over 60% in size; further: potency means the concentration at half of the fitted maximal effect
Details: P. falciparum in erythrocytes, SYBR Green DNA, 72 h; series mostly up to 28.7 µM
Description: NIH National Institute of Allergy and Infectious Diseases [NIAID] NIH Chemical Genomics Center [NCGC] […] Because mature erythrocytes lack DNA, only Plasmodium-derived DNA is detected. NCGC Assay Protocol Summary: The SYBR Green viability assay was adapted from a method described previously (Plouffe et al., 2008). […] The following morning, fluorescence intensity at 485(14) nm excitation and 535(25) nm emission wavelengths was measured on an EnVision (Perkin Elmer) plate reader. […]
Inconclusive results are not listed. Activity calls are given as the source filed them. The call rests on the fitted dose curve; in most records, active means well fitted inhibition curve with a large enough effect; inconclusive means small, poorly fitted or top-dose-only effect; inactive means flat fitted curve, though single readings scatter.
parameter: Potency

# smiles-structure, target, result
rows = [
    ("CCN(CC)C(=O)N1CCN(C)CC1", "C2A", "inactive"),
    ("O=C(O)CCCCC(=O)O", "C2A", "inactive"),
    ("CCCCCCCCCCCCCCCCOP(=O)([O-])OCC[N+](C)(C)C", "C2A", "inactive"),
    ("O=C(OCCOCCO)c1ccccc1Nc1cccc(C(F)(F)F)c1", "C2A", "inactive"),
    ("Cc1c(C)n(Cc2ccccc2)c2ccc(C(=O)OCCN(C)C)cc12", "C2A", "inactive"),
    ("COc1cccc2c1C(=O)c1c(O)c3c(c(O)c1C2=O)C[C@@](O)(C(C)=O)C[C@@H]3O[C@H]1C[C@H](N)[C@H](O)[C@H](C)O1", "C2A", "3.16 µM (active)"),
    ("Cc1cccn2c(=O)c(-c3nnn[nH]3)cnc12", "C2A", "inactive"),
    ("CC[N+](CC)(CCNC(=O)C(=O)NCC[N+](CC)(CC)Cc1ccccc1Cl)Cc1ccccc1Cl", "C2A", "10 µM (active)"),
    ("Nc1cc(Cl)c(NC2=NCCN2)c(Cl)c1", "C2A", "inactive"),
    ("COc1cc(OC)cc(OC)c1", "C2A", "inactive"),
    ("CCCn1c(=O)[nH]c(=O)c2[nH]cnc21", "C2A", "inactive"),
]
